biological target: Lethal factor (Bacillus anthracis); assay: Lethal factor protease inhibitors, Bacillus anthracis, multiplex microsphere cleavage assay, validation set (AID 588461); details: flow cytometry, at 10 µM, active compounds read high
measured.quantity: inhibition (%)
Write down the numeric answer in % and omit the unit.

Task: Given COc1ccc(/C=C\c2cc(OC)c(OC)cc2CC[N+](C)(C)C)cc1OC , state its recorded inhibition.
Result: 3.5

Task: Given c1coc(-c2nnc3n2C2(CCCC2)Cc2ccccc2-3)c1 , state its recorded inhibition.
Result: -5.9

Task: Given COc1ccc(C2OC[C@H]3O[C@H](O)[C@H](NC(C)=O)[C@@H](O)[C@@H]3O2)cc1 (stereo partly specified) , state its recorded inhibition.
Result: -9.6

Task: Given COc1ccccc1NC(=O)C12CCC(C)(C(=O)C1)C2(C)C (stereo unspecified) , state its recorded inhibition.
Result: 0.3

Task: Given COc1cc2c(cc1OC)/C(=C/c1ccc(Cl)cc1)C(=O)OC2 , state its recorded inhibition.
Result: -1.5

Task: Given COc1ccc(-c2coc3cc(O)cc(O)c3c2=O)cc1 , state its recorded inhibition.
Result: 0.1

Task: Given CN(C)c1nc(N(C)C)nc(N(C)C)n1 , state its recorded inhibition.
Result: -4.2

Task: Given COc1ccc(C(=O)Nc2ccccc2C(=O)NCCCn2ccnc2)cc1 , state its recorded inhibition.
Result: -3.7

Task: Given O=C(Cc1ccccc1[N+](=O)[O-])NCc1ccncc1 , state its recorded inhibition.
Result: -5.4

Task: Given COc1ccc2c(=O)c(-c3cnn(-c4ccccc4)c3)c(C)oc2c1 , state its recorded inhibition.
Result: 1.4

Task: Given Cc1cccc(C(=O)c2cccc(C)c2)c1 , state its recorded inhibition.
Result: -11.4

---

system: Botulinum neurotoxin type F light chain protease (Clostridium botulinum); assay: Botulinum neurotoxin type F light chain protease inhibition, multiplex microsphere flow cytometry, validation set (AID 588459); details: multiplex microsphere protease substrate cleavage assay, at 10 µM, active compounds read high
Activity calls are given as the source filed them. How the calls were made is not given here.
measured.quantity: inhibition

Task: Given Cn1c(=O)c2nc3ccccc3nc2n(C)c1=O , state its recorded inhibition.
Result: -0.9% (inactive)

Task: Given COc1ccc(CC(=O)N2CC3(C)CC2CC(C)(C)C3)cc1OC (stereo unspecified) , state its recorded inhibition.
Result: -2.6% (inactive)

Task: Given COc1ccc(N2CCN(C(=S)NCc3ccccc3)CC2)cc1 , state its recorded inhibition.
Result: 2.4% (inactive)

Task: Given COc1ccc2cc(CCC(C)=O)ccc2c1 , state its recorded inhibition.
Result: -2.3% (inactive)

Task: Given O=C(O)C1Sc2[nH]c(=O)sc2C2c3ccc(O)cc3OC(=O)C12 (stereo unspecified) , state its recorded inhibition.
Result: -6.1% (inactive)

Task: Given O=C(O)CP(=O)(O)O , state its recorded inhibition.
Result: 1.3% (inactive)

Task: Given CC(=O)CCc1c(C)c2cccc(C)c2[nH]c1=O , state its recorded inhibition.
Result: 4.3% (inactive)

Task: Given CCCC(=O)O[C@]1(C(=O)CO)CC[C@H]2[C@@H]3CCC4=CC(=O)CC[C@]4(C)[C@H]3[C@@H](O)C[C@@]21C , state its recorded inhibition.
Result: 5.1% (inactive)

Task: Given COc1ccc(C2=NOC(COc3ccc4c(C)cc(=O)oc4c3)C2)c(OC)c1 (stereo unspecified) , state its recorded inhibition.
Result: -0.4% (inactive)

Task: Given COCC1CCCN(Cc2cn[nH]c2-c2cc3ccccc3o2)C1 (stereo unspecified) , state its recorded inhibition.
Result: -0.1% (inactive)

Task: Given O=C(Nc1nc2ccccc2s1)c1ccc(F)cc1 , state its recorded inhibition.
Result: -5.1% (inactive)
